- Tested on: wheat (Triticum aestivum)
- Protocol: Test A postemergence, wheat
- Assay type: in vivo
- Condition notes: 125 g ai/ha, 0 to 100 scale, 0 no effect, 100 complete control
Observable: Plant response rating, Wheat
The response must contain the number and no unit.

The reported value for CC(Nc1ncc(C(F)(F)F)c(N)n1)c1cc2ccc(F)c(F)c2s1 (centres unmarked) [Compound 86] in terms of Plant response rating, Wheat is 0

For this compound ( CC(Nc1nc(N)c(C(F)(F)F)c(C(F)(F)F)n1)c1coc2ccccc12 (centres unmarked) [Compound 87] ), measured Plant response rating, Wheat is 0

response.value for C[C@@H](Nc1ncc(C(F)(F)F)c(N)n1)c1cc2c(F)ccc(F)c2s1 [Compound 114] (field: Plant response rating, Wheat) = 30

Recorded result, CC(Nc1nc(N)c(C(F)(F)F)c(C(F)(F)F)n1)c1cc2ccccc2o1 (racemic) [Compound 58] , Plant response rating, Wheat: 0

Sure, the documented Plant response rating, Wheat for C[C@@H](Nc1ncc(C(F)(F)F)c(N)n1)c1coc2cc(Cl)ccc12 [Compound 55] is 0

Record summary for CC(Nc1ncc(C(F)(F)F)c(N)n1)c1cc2c(Cl)cccc2o1 (centres unmarked) [Compound 100] : reported Plant response rating, Wheat = 50

The reported Plant response rating, Wheat of the compound Nc1nc(N[C@@H](c2cc3ccccc3s2)C2CC2)ncc1C(F)(F)F [Compound 84] was 0

Field Plant response rating, Wheat (entry CC(C)[C@@H](Nc1ncc(C(F)(F)F)c(N)n1)c1cc2ccccc2s1 [Compound 50] ) reads 0

* * *

For each record, write down the corresponding Kochia plant response rating.
- Test system: kochia (Kochia scoparia)
- Protocol: Test A preemergence, kochia
- Format: in vivo
- Condition notes: 500 g ai/ha, 0 to 100 scale, 0 is no effect, 100 is complete control
// return just the number, without any unit appended

Kochia plant response rating reported for this compound `CC[C@@H](Nc1ncc(C(F)(F)F)c(N)n1)c1cc2ccc(F)cc2s1` : 80

Kochia plant response rating reported for this compound `C[C@@H](Nc1ncc(C(F)(F)F)c(N)n1)c1cc2c(F)cccc2o1` : 100

Lab note: `C[C@H](Nc1ncc(C(F)(F)F)c(N)n1)c1csc2ccccc12` gave Kochia plant response rating of 0

response.value for CC(Nc1ncc([N+](=O)[O-])c(N)n1)c1cc2ccccc2s1 (stereo not drawn) (field: Kochia plant response rating) = 90

Quick note, Kochia plant response rating for `C[C@H](Nc1ncc(C(F)(F)F)c(N)n1)c1cc2ccccc2n1C` landed at 0

Record `C[C@H](Nc1ncc(C(F)(F)F)c(N)n1)c1cc2cccc(F)c2o1` . Reported Kochia plant response rating: 0

Lab note: Cc1nc(NC(C)c2coc3ccccc23)nc(N)c1C(F)(F)F (stereo not drawn) gave Kochia plant response rating of 90

Note to self: Kochia plant response rating recorded for CC(Nc1ncc(C(F)(F)F)c(N)n1)c1cc2ccc(F)c(F)c2s1 (stereo not drawn) was 100

Please fill in: Kochia plant response rating reported for `C[C@H](Nc1ncc(C(F)(F)F)c(N)n1)c1coc2ccc(F)cc12` = 0

The recorded Kochia plant response rating for entry `C[C@@H](Nc1nc(N)c(C(F)(F)F)c(C(F)(F)F)n1)c1cc2ccccc2o1` equals 0

Entry `C[C@@H](Nc1ncc(C(F)(F)F)c(N)n1)c1cc2ccc(F)cc2s1` , Kochia plant response rating reported as 100

Kochia plant response rating recorded for this compound, CC(Nc1ncc(C(F)(F)F)c(N)n1)c1cc2ccc(Cl)cc2s1 (racemic) , is 40

Briefly, Kochia plant response rating measured for CC(Nc1ncc(C(F)(F)F)c(N)n1)c1coc2cc(Cl)ccc12 (racemic) : 60

# Kochia plant response rating of `Nc1nc(N[C@@H](c2cc3ccccc3s2)C2CC2)ncc1C(F)(F)F` = 90

Entry CC(Nc1ncc(C(F)(F)F)c(N)n1)c1coc2cccc(F)c12 (racemic) , Kochia plant response rating reported as 0

Reported Kochia plant response rating ( `C[C@H](Nc1nc(N)c(C(F)(F)F)c(C(F)(F)F)n1)c1cc2ccccc2s1` ) = 0

Note to self: Kochia plant response rating recorded for CC(Nc1ncc(C(F)(F)F)c(N)n1)c1cc2c(Cl)cccc2o1 (stereo not drawn) was 90

Given item Nc1nc(NC(c2coc3ccccc23)C2CC2)ncc1C(F)(F)F (racemic) , the value recorded as its Kochia plant response rating is 90
